molecular target: T1, VEGFR-1-Fc (UniProt P17948 27-338); test: receptor-Fc IP
T1 construct: domain: first three Ig domains; expressed in Drosophila S2 cells, purified on Protein A sepharose; also called VEGFR-1-Fc fusion protein; not shown: Fc fragment from the Signal-pIgPlus vector
T1 sequence (P17948 27-338): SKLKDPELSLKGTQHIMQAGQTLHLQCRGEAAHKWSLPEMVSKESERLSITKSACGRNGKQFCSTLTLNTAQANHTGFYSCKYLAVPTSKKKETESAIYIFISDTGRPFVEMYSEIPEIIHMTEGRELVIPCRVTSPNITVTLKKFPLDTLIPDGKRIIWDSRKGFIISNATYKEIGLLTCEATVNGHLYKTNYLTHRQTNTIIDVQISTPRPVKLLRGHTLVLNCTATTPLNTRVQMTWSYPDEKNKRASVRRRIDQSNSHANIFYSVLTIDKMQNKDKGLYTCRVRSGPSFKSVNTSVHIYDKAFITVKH
PROPERTY_MEASURED: binding result

[ask] # lookup: binding result of 71-2 (ligand) GQNHHEVVKSIDNEWRKTQCMPREVCIDVGKEYPDEIEYIFKPSCVPLMRCGGCCNDEGLECMNTSTSYLSKTLFEIKPHQGQHIGEMSFLQHNKCECRPKKD
[reply] no binding

[ask] Do the same for 72-2 (ligand) GQNHHEVVKSIDNEWRKTQCMPREVCIDVGKEFGVATNTFFKPPCVSVYRCGGCCNDEGLECMNTSTSYLSKTLFEIKPHQGQHIGEMSFLQHNKCECRPKKD please
[reply] no binding
